Test system: Phosphorylated Ribosomal Protein S6 (RPS6)
EXPERIMENTAL DETAILS: THP-1 RPS6 ELISA Assay
Type: cell-based, Human
TEST CONDITIONS: THP-1 cells; read-out: PI3Kγ_THP1_RPS6_ELISA IC50
pIC50: −log10 of the molar value. Where a name gives a salt, the structure may show the parent alone.

MOLECULE | pIC50
Cc1ccc(S(=O)(=O)N[C@H]2CC[C@@H](C#N)C2)cc1-c1cnc2c(N)nc(C(F)(F)F)nn12 (single isomer, unassigned) [Example 320] | 6.30 to 7.00
COC(=O)NC12CC(NS(=O)(=O)c3ccc(C)c(-c4cnc5c(N)ncnn45)c3)(C1)C2 [Example 115, trifluoroacetate salt] | 6.30 to 7.00
Cc1ccc(S(=O)(=O)NCC2(O)COC2)cc1-c1cnc2c(N)nc(C(F)(F)F)nn12 [Example 316, trifluoroacetate salt] | > 7.00
Cc1ccc(S(=O)(=O)NC23CC(N)(C2)C3)cc1-c1cnc2c(N)nc(C(F)(F)F)nn12 [Example 341, trifluoroacetate salt] | 6.30 to 7.00
Cc1nc(N)c2ncc(-c3cc(S(=O)(=O)NCC4(O)CCC4)ccc3C)n2n1 [Example 269, trifluoroacetate salt] | 6.30 to 7.00
Cc1ccc(S(=O)(=O)NC23CC(N4CCOCC4)(C2)C3)cc1-c1cnc2c(N)nc(C(F)(F)F)nn12 [Example 340, trifluoroacetate salt] | 6.30 to 7.00
Nc1nc(C(F)(F)F)nn2c(-c3cccc(S(=O)(=O)NC45CCC(CO)(C4)C5)c3)cnc12 [Example 411, trifluoroacetate salt] | 6.30 to 7.00
Cc1ccc(S(=O)(=O)NC23CC(Cn4cccn4)(C2)C3)cc1-c1cnc2c(N)nc(C(F)(F)F)nn12 [Example 332, trifluoroacetate salt] | > 7.00
Cc1ccc(S(=O)(=O)NC23CC(N4CCOCC4)(C2)C3)cc1-c1cnc2c(N)ncnn12 [Example 116, trifluoroacetate salt] | 6.30 to 7.00
Cc1ccc(S(=O)(=O)NC23CC(Cn4cccn4)(C2)C3)cc1-c1cnc2c(N)ncnn12 [Example 92, trifluoroacetate salt] | > 7.00
Cc1ccc(S(=O)(=O)NC2CCC(C)(O)CC2)cc1-c1cnc2c(N)nccn12 (centres unmarked) | 6.30 to 7.00
Cc1ccc(S(=O)(=O)N2CC(O)(C3CC3)C2)cc1-c1cnc2c(N)ncnn12 [Example 144, TFA] | 6.00 to 6.30
Cc1ccc(S(=O)(=O)N[C@H]2CC[C@H](CO)OC2)cc1-c1cnc2c(N)nc(C(F)(F)F)cn12 | > 7.00
Cc1ccc(S(=O)(=O)NC23CC(CF)(C2)C3)cc1-c1cnc2c(N)nc(C(F)(F)F)nn12 [Example 331, trifluoroacetate salt] | 6.30 to 7.00
Cc1nc(N)c2ncc(-c3cc(S(=O)(=O)NCC(C)(C)O)ccc3C)n2n1 [Example 273, trifluoroacetate salt] | 6.30 to 7.00
Cc1ccc(S(=O)(=O)N[C@H]2CC[C@@H](C#N)C2)cc1-c1cnc2c(N)nc(C(F)(F)F)nn12 (single isomer, unassigned) [Example 321] | > 7.00
Cc1ccc(S(=O)(=O)NCC2CCN(C(=O)C3CC3)CC2)cc1-c1cnc2c(N)nccn12 | < 6.00
Cc1ccc(S(=O)(=O)NCC2(C)COC2)cc1-c1cnc2c(N)nc(C(F)(F)F)nn12 [Example 318, trifluoroacetate salt] | > 7.00
N#CC12CCC(NS(=O)(=O)c3cccc(-c4cnc5c(N)ncnn45)c3)(C1)C2 [Example 364, trifluoroacetate salt] | > 7.00
Cc1c(F)cc(S(=O)(=O)NC23CCC(C#N)(C2)C3)cc1-c1cnc2c(N)nc(C(F)(F)F)nn12 [Example 416, trifluoroacetate salt] | > 7.00
Cc1ccc(S(=O)(=O)NCC(C)(C)O)cc1-c1cnc2c(N)nc(C(F)(F)F)nn12 [Example 317, trifluoroacetate salt] | > 7.00
Cc1ccc(S(=O)(=O)NC23CC(Cn4cncn4)(C2)C3)cc1-c1cnc2c(N)ncnn12 [Example 113, trifluoroacetate salt] | 6.30 to 7.00
Cc1ccc(S(=O)(=O)NC23CC(C(C)(C)O)(C2)C3)cc1-c1cnc2c(N)ncnn12 | 6.30 to 7.00
Cc1ccc(S(=O)(=O)NC23CCC(CC2)CC3)cc1-c1cnc2c(N)ncnn12 [Example 181, trifluoroacetate salt] | 6.30 to 7.00
Cc1ccc(S(=O)(=O)N2CC(O)(C3CC3)C2)cc1-c1cnc2c(N)nc(C(F)(F)F)nn12 [Example 342, TFA] | 6.30 to 7.00
Cc1ccc(S(=O)(=O)NC23CCC(CO)(C2)C3)cc1-c1cnc2c(N)ncnn12 [Example 107, trifluoroacetate salt] | 6.00 to 6.30

----------
TEST TARGET: PI3Kδ (p110δ/p85α) Recombinant Human Protein (Homo sapiens (Human))
Sequence (O00329 whole entry): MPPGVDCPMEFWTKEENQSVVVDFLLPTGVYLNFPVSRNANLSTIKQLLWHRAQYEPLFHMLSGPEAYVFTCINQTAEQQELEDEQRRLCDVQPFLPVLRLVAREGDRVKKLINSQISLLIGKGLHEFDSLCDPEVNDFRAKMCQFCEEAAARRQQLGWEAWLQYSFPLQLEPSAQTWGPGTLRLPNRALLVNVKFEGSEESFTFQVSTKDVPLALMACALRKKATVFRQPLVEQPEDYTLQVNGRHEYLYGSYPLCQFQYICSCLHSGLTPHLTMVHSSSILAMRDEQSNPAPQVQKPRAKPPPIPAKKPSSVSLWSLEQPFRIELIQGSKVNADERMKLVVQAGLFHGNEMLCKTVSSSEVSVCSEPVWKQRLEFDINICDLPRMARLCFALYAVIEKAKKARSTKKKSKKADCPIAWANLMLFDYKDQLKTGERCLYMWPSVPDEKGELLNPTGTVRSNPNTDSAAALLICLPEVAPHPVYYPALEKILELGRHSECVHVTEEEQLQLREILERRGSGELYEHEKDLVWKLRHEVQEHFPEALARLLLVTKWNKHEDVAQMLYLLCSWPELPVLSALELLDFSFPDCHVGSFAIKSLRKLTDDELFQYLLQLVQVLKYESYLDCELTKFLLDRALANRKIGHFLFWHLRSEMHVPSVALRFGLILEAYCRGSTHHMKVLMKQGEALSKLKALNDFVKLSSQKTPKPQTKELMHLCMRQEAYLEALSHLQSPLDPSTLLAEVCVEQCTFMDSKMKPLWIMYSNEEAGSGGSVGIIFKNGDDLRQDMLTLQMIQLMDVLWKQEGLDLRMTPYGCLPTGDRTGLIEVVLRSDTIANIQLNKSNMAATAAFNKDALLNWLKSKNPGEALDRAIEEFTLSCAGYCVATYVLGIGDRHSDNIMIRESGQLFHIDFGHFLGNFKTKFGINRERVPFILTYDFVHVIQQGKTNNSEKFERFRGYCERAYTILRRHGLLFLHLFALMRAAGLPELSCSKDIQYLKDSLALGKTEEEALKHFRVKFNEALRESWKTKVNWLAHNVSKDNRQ
Sequence (P27986 whole entry partner): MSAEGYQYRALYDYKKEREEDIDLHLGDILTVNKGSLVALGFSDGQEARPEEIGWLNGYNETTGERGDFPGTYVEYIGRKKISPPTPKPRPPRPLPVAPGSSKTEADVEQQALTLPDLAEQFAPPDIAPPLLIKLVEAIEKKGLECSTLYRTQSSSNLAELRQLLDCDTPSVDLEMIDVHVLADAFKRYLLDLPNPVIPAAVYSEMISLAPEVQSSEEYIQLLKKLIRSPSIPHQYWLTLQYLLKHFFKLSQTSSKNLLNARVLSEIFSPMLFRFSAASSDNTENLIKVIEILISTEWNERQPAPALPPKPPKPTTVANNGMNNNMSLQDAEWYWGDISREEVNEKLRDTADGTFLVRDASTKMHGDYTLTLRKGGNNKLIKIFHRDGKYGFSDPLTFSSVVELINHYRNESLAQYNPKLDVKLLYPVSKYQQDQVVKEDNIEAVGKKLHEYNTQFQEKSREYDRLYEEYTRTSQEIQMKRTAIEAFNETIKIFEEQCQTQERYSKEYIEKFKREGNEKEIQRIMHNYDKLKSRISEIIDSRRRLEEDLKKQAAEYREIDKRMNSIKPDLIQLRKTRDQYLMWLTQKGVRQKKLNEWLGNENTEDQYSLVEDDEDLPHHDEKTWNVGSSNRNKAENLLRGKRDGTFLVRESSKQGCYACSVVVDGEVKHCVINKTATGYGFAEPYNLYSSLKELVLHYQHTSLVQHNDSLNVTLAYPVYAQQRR
EXPERIMENTAL DETAILS: PI3Kδ Scintillation Proximity Assay
Counter-ions that a name gives are not always drawn.
Reported values of IC50 for individual entries
MEASUREMENT KIND: IC50

COMPOUND | VAL
Cc1ccc(S(=O)(=O)NC23CC(N4CCOCC4)(C2)C3)cc1-c1cnc2c(N)nc(C(F)(F)F)nn12 [Example 340, trifluoroacetate salt] | 100 to 500 nM
Cc1ccc(S(=O)(=O)CCC(C)(C)O)cc1-c1cnc2c(N)nc(C(F)(F)F)cn12 [Example 495] | 500 to 2000 nM
Cc1ccc(S(=O)(=O)N[C@H]2CC[C@@H](C#N)C2)cc1-c1cnc2c(N)nc(C(F)(F)F)nn12 (single isomer, unassigned) [Example 320] | 100 to 500 nM
Cc1ccc(S(=O)(=O)N[C@H]2C[C@@H](CO)C2)cc1-c1cnc2c(N)ncnn12 [Example 61] | 500 to 2000 nM
Cc1cccc(-c2cn3c(-c4cc(S(=O)(=O)N[C@H]5CC[C@H](O)CC5)ccc4C)cnc3c(N)n2)c1 [Example 19] | 100 to 500 nM
Cc1ccc(S(=O)(=O)N2CCCC(CO)C2)cc1-c1cnc2c(N)nc(C(F)(F)F)cn12 (stereo not drawn) [Example 472] | 100 to 500 nM
Cc1ccc(S(=O)(=O)N2CC3(CC(O)C3)C2)cc1-c1cnc2c(N)nc(C(F)(F)F)nn12 [Example 343, TFA] | < 100 nM
Cc1ccc(S(C)(=O)=O)cc1-c1cnc2c(N)nc(C(=O)NCCCn3cccn3)cn12 [Example 457, trifluoroacetate salt] | 100 to 500 nM
Cc1ccc(S(=O)(=O)N[C@H]2CC[C@@](C)(O)CC2)cc1-c1cnc2c(N)ncnn12 [Example 133] | 500 to 2000 nM
Cc1ccc(S(=O)(=O)NC23CCC(C(O)c4ccccc4)(CC2)OC3)cc1-c1cnc2c(N)ncnn12 (racemic) [Example 438] | 100 to 500 nM
Cc1ccc(S(C)(=O)=O)cc1-c1cnc2c(N)nc(C(=O)Nc3cc(-c4ccco4)[nH]n3)cn12 [Example 454, trifluoroacetate salt] | 500 to 2000 nM
[2H]C([2H])([2H])c1ccc(S(=O)(=O)NC23COC(C)(C2)C3)cc1-c1cnc2c(N)nc(C)nn12 [Example 426, trifluoroacetate salt] | 100 to 500 nM
Cc1ccc(S(=O)(=O)NC23CCC(O)(CC2)C3)cc1-c1cnc2c(N)nc(C(F)(F)F)cn12 [Example 444, trifluoroacetate salt] | < 100 nM
Cc1nc(N)c2ncc(-c3cc(S(=O)(=O)N[C@H]4CC[C@H](CC#N)OC4)c(Cl)cc3C)n2n1 [Example 389] | < 100 nM
Cc1ccc(S(=O)(=O)NC23CC(Cn4cccn4)(C2)C3)cc1-c1cnc2c(N)nc(C(F)(F)F)cn12 [Example 283, trifluoroacetate salt] | 100 to 500 nM
Cc1ccc(S(=O)(=O)NCCN2CCCC2=O)cc1-c1cnc2c(N)ncnn12 [Example 138] | 500 to 2000 nM
Cc1ccc(S(=O)(=O)NCC2CCOC2)cc1-c1cnc2c(N)ncnn12 (stereo not drawn) [Example 67] | > 2000 nM
Cc1ccc(S(C)(=O)=O)cc1-c1cnc2c(N)nc(C(=O)NC3CCCN(CCO)C3)cn12 (racemic) [Example 460] | > 2000 nM
Cc1ccc(S(=O)(=O)NCC2(F)COC2)cc1-c1cnc2c(N)nc(C(F)(F)F)nn12 [Example 315, trifluoroacetate salt] | < 100 nM
Nc1ncnn2c(-c3ccc(F)c(S(=O)(=O)NC45CCC(CO)(C4)C5)c3)cnc12 [Example 366, trifluoroacetate salt] | 100 to 500 nM
Cc1ccc(S(=O)(=O)NC23CCC(CO)(C2)C3)cc1-c1cnc2c(N)nc(C3CC3)nn12 [Example 259, trifluoroacetate salt] | 100 to 500 nM
Cc1ccc(S(=O)(=O)N2CCC3(CCOCC3)C2C)cc1-c1cnc2c(N)ncnn12 (stereo not drawn) [Example 206] | 500 to 2000 nM
Cc1ccc(S(=O)(=O)N[C@H]2CC[C@H](O)CC2)cc1-c1cnc2c(N)nc(-c3cnn(C)c3)cn12 [Example 29] | 100 to 500 nM
Cc1ccc(S(=O)(=O)N[C@H]2CC[C@H](O)CC2)cc1-c1cnc2c(N)nc(-c3ccncc3)cn12 [Example 25] | 100 to 500 nM
Cc1ccc(S(=O)(=O)NC23CCC(C(C)(C)O)(CC2)OC3)cc1-c1cnc2c(N)nc(C(F)(F)F)cn12 [Example 441, trifluoroacetate salt] | 100 to 500 nM
COc1nccc(-c2cn3c(-c4cc(S(C)(=O)=O)ccc4C)cnc3c(N)n2)c1F [Example 483, trifluoroacetate] | < 100 nM
Cc1ccc(S(C)(=O)=O)cc1-c1cnc2c(N)nc(-c3ccc(C(=O)N(C)C)cc3F)cn12 [Example 480] | 100 to 500 nM
